# target_under_test: T1, cynomolgus monkey IL-33 expressed with a C-terminal hexahistidine tag (cynomolgus monkey)
# T1 construct: also called MfIL-33-6His; Mf-IL-33-6His
# T1 chain: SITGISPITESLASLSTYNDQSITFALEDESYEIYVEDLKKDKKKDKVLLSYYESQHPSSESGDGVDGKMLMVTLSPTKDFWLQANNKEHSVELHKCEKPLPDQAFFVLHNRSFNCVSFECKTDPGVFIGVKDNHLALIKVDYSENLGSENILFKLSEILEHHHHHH
# assay_procedure: SPR 25C, pH6.0 chase, mAb captured

binder	output_unit	t½
H4H9676P (antibody, human IgG4, V domains shown, Human IgG4 Fc (H4H)) VH: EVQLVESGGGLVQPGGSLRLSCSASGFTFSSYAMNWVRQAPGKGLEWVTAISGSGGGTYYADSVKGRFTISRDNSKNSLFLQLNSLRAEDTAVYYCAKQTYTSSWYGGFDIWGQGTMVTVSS VL: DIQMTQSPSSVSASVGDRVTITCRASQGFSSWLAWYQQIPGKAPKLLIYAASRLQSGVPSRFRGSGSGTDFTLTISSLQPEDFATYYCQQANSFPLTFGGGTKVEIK	min	8
H4H9629P (antibody, human IgG4, V domains shown, Human IgG4 Fc (H4H)) VH: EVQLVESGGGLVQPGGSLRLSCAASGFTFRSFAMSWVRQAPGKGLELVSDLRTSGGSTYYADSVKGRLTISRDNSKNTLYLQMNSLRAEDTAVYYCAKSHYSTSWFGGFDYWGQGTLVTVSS VL: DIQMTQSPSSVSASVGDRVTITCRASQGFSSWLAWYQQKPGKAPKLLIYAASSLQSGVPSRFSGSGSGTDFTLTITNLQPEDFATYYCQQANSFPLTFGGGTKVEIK	min	0.3
